The measurements presented in this section are drawn from patent US20230103791A1.

# SYSTEM TESTED: human Nav1.8 (Homo sapiens)
# Construct: expressed in transfected cells; host or cells: HEK293 (HEK293-Nav1.8)
# Sequence (Q9Y5Y9 whole entry): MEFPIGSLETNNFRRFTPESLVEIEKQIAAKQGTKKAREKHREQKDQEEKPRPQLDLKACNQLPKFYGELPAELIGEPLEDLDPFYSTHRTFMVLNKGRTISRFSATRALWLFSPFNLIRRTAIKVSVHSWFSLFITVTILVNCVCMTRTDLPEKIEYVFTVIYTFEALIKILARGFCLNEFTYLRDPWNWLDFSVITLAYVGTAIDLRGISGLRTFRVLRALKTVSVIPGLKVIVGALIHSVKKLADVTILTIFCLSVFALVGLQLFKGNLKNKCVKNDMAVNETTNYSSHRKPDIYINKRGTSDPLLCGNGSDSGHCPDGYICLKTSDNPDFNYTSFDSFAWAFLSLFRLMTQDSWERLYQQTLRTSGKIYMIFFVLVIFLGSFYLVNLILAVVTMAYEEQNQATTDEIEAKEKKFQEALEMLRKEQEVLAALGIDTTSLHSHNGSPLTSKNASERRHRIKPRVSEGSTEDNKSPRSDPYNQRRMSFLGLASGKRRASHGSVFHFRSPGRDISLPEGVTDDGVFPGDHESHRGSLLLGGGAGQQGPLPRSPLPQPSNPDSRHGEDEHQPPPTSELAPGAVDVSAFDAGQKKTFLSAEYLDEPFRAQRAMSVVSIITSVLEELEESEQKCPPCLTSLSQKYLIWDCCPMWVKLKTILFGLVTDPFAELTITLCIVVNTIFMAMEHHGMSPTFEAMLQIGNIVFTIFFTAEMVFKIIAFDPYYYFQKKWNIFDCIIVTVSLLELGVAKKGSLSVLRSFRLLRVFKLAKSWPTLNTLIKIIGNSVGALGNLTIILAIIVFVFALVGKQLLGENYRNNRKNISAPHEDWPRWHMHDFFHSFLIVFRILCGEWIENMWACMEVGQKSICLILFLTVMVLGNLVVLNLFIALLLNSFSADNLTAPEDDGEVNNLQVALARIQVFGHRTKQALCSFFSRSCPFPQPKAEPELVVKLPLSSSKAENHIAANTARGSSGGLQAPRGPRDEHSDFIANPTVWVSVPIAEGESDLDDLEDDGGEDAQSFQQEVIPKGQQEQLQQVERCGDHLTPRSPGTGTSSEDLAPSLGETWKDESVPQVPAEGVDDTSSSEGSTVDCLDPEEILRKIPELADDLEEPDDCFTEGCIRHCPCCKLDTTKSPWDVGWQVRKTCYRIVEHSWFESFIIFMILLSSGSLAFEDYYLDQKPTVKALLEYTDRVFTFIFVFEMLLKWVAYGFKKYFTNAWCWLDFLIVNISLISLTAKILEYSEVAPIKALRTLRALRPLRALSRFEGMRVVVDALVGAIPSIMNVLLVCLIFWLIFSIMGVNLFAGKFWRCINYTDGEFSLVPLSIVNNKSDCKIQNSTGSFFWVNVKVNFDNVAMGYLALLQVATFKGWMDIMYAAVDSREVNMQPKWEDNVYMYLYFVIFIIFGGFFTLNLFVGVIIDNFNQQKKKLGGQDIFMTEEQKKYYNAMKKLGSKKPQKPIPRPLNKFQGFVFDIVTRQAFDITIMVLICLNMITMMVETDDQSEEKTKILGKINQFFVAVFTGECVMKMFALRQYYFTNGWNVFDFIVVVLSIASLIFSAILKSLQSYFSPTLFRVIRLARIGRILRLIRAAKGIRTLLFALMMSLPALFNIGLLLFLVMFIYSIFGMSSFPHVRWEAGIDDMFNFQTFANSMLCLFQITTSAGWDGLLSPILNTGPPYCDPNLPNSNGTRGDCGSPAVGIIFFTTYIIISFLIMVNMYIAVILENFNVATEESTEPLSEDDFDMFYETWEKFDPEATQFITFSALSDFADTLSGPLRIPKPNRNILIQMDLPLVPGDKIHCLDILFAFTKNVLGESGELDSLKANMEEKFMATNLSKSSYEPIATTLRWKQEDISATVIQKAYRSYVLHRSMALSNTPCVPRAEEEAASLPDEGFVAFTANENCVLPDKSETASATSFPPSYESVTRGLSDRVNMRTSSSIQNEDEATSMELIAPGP
# Sequence (Q07699 19-218 partner): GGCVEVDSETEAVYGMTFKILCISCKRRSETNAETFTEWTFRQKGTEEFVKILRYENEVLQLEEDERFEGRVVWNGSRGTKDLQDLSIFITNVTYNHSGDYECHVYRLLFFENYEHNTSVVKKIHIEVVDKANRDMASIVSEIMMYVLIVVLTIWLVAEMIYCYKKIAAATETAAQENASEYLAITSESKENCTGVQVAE
# ASSAY EXPLANATION: Nav1.8 sodium channels assay, QPatch 48 HTX electrophysiology in HEK293-Nav1.8 cells
# Assay type: cell-based
# CONDITION INFO: Table 1; HEK293-Nav1.8, QPatch 48 HTX, half inactivation state voltage protocol (V1/2); single run or average of two or more runs; read-out: Nav1.8 pIC50 (converted)
IC50 class ranges: low = under 300 nM, mid = from 300 nM up to 1000 nM, high = 1000 nM and over

For Cc1[nH]c(=O)ccc1N1CN(c2ccc(F)cc2C(C)C)c2cc(C(F)(F)F)ccc2C1=O [drawing 290] , which IC50 bin applies?
low

Also check Cc1cc(F)ccc1N1CN(c2ccc(=O)[nH]c2C)C(=O)c2cc(C(F)(F)F)ccc21 [drawing 305]
low

Also check COc1cc(F)ccc1N1CN(c2ccc(=O)[nH]c2)C(=O)c2ccc(C(F)(F)F)cc21 [drawing 264]
mid

Also check Cc1cc(F)ccc1N1CN(c2ccc(=O)[nH]c2)C(=O)c2ccc(C(F)(F)F)c(Cl)c21 [drawing 282]
high

Also check O=C1c2ccc(C(F)(F)F)cc2N(c2ccc(F)cc2OCCO)CN1c1ccc(=O)[nH]c1 [drawing 277]
high

Also check Cc1cc(F)ccc1N1CN(c2ccc(=O)[nH]c2)C(=O)c2ccc(C(F)(F)F)c(C)c21 [drawing 284]
high

Also check O=C1c2ccc(C(F)(F)F)cc2N(c2ccc(F)cc2Cl)CN1c1ccc(=O)[nH]c1 [drawing 276]
mid

Also check Cc1cc(F)ccc1N1CN(c2ccc(=O)[nH]n2)C(=O)c2ccc(C(F)(F)F)cc21 [drawing 307]
high

Also check Cc1cc(F)ccc1N1CN(c2ccc(=O)[nH]c2Cl)C(=O)c2ccc(C(F)(F)F)cc21 [drawing 292]
mid

Also check Cc1cc(=O)[nH]cc1N1CN(c2ccc(F)cc2C)c2cc(C(F)(F)F)ccc2C1=O [drawing 273]
mid

Also check O=C1c2ccc(C(F)(F)F)cc2N(c2ccc(F)cc2F)CN1c1ccc(=O)[nH]c1 [drawing 278]
mid

Also check COc1cc(F)ccc1N1CN(c2ccc(=O)[nH]c2)C(=O)c2c1cccc2C(F)(F)F [drawing 281]
high

Also check Cc1[nH]c(=O)ccc1N1CN(c2ccc(F)cc2)c2ccccc2C1=O [drawing 294]
high

Also check Cc1[nH]c(=O)ccc1N1CN(c2ccc(F)cc2F)c2cc(C(F)(F)F)ccc2C1=O [drawing 301]
low

Also check O=C1c2ccc(C(F)(F)F)cc2N(Cc2ccc(F)cc2)CN1c1ccc(=O)[nH]c1 [drawing 272]
high

Also check CCc1cc(F)ccc1N1CN(c2ccc(=O)[nH]c2)C(=O)c2ccc(C(F)(F)F)cc21 [drawing 280]
low

Also check CCc1[nH]c(=O)ccc1N1CN(c2ccc(F)cc2C)c2cc(C(F)(F)F)ccc2C1=O [drawing 291]
low

Also check Cc1cc(F)ccc1N1CN(c2ccc(=O)[nH]c2)C(=O)c2c1cccc2C(F)(F)F [drawing 267]
high

Also check Cc1cc(F)ccc1N1c2cc(C(F)(F)F)ccc2C(=O)N(c2ccc(=O)[nH]c2)C1C (centres unmarked) [drawing 275]
high

Also check Cc1cc(F)ccc1N1CN(c2ccc(=O)[nH]c2C)C(=O)c2ccc(C(F)(F)F)cc21 [drawing 268]
low

Also check Cc1cc(F)ccc1N1CN(c2ccc(=O)[nH]c2C)C(=O)c2ccc(C(F)(F)F)nc21 [drawing 288]
low

Also check Cc1ccc2c(c1)N(c1ccc(F)cc1C)CN(c1ccc(=O)[nH]c1C)C2=O [drawing 304]
low

Also check Cc1cc(F)ccc1N1CN(c2ccc(=O)[nH]c2C)C(=O)c2cc(C(F)(F)F)cnc21 [drawing 266]
low

Also check Cc1ncccc1N1CN(c2ccc(=O)[nH]c2C)C(=O)c2ccc(C(F)(F)F)cc21 [drawing 289]
high

Also check Cc1cc(F)ccc1N1CN(c2c[nH]c(=O)c(C)c2)C(=O)c2ccc(C(F)(F)F)cc21 [drawing 271]
mid

Also check Cc1cc(Br)ccc1N1CN(c2ccc(=O)[nH]c2)C(=O)c2ccc(C(F)(F)F)cc21 [drawing 283]
mid

Also check Cc1cc(F)ccc1N1CN(c2ccc(=O)[nH]c2C)C(=O)c2ccc(Br)cc21 [drawing 298]
low

Also check Cc1cc(F)ccc1N1CN(c2ccc(=O)[nH]c2)C(=O)c2cc(C(F)(F)F)ccc21 [drawing 269]
mid

Also check Cc1cc(F)ccc1N1CN(c2ccc(=O)n(C)c2)C(=O)c2ccc(C(F)(F)F)cc21 [drawing 265]
high

Also check Cc1cc(F)ccc1N1CN(c2ccc(=O)[nH]c2C#N)C(=O)c2ccc(C(F)(F)F)cc21 [drawing 300]
low

Also check Cc1cc(F)ccc1N1CN(c2ccc(=O)[nH]c2C)C(=O)c2ccc(OC(F)(F)F)cc21 [drawing 303]
low

Also check Cc1ccc2c(c1)C(=O)N(c1ccc(=O)[nH]c1C)CN2c1ccc(F)cc1C [drawing 296]
low
